- Tested on: E.faecalis (Ef)
- Assay Summary: Broth microdilution MIC against E.faecalis (Ef)
- Assay type: cell-based
- Condition Context: Enterococcus faecalis, read-out: Ef +bicarb 25 (MIC)
Where a name gives a salt, the structure may show the parent alone.
Experimental Readout: MIC

Molecule: CC(C)(N)C(=O)N1CCN(C(=O)Nc2ccn(-c3ccc4c(c3)CCC(N(CC3CC3)[C@H]3CC[C@H](N)CC3)C4)c(=O)n2)CC1 (stereo partly shown) [Compound 17, hydrochloride salt]
MIC: < 8 µg/mL
--
Molecule: CCN(C1CCc2cc(-n3ccc(NC(=O)N4CCN(C(=O)C(C)(C)N)CC4)nc3=O)ccc2C1)[C@H]1CC[C@H](N)CC1 (stereo partly shown) [Compound 16, hydrochloride salt]
MIC: < 8 µg/mL

// lookup MIC for CC(C)(N)C(=O)N1CCN(C(=O)Nc2ccn(-c3ccc4c(c3)CN([C@H]3CC[C@H](N)CC3)C4)c(=O)n2)CC1 [Compound 46, hydrochloride salt]
8 to 32 µg/mL

How about this molecule: CC(C)(N)C(=O)N1CCN(C(=O)Nc2ccn(-c3ccc4c(c3)CCC(N[C@H]3CC[C@H](N)C3)C4)c(=O)n2)CC1 (stereo partly shown) [Compound 9, hydrochloride salt]
< 8 µg/mL

These measurements were taken from patent US20230278987A1.
